- tested system: FsnR (Stenotrophomonas maltophilia)
- Construct: full length, recombinant from E. coli BL21(DE3), C-terminal His6 or GST tag (GST cleaved on column); Red NHS labelled for MST
- Sequence (B2FQU0 entry or part of it): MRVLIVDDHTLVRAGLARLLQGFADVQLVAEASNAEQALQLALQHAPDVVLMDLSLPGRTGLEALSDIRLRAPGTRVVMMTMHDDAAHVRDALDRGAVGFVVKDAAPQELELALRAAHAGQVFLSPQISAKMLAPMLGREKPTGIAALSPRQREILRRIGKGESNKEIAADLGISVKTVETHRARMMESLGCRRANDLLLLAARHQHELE
- assay procedure: microscale thermophoresis (MST)
- measurement setup: PBS buffer; labelled protein
reported property: pKd
Answers are plain numbers, as −log10 of the molar value.

Report measured pKd; entry is Nc1nc2c(ncn2[C@@H]2O[C@@H]3CO[P@](=O)(O)O[C@H]4[C@@H](O)[C@H](n5cnc6c(=O)[nH]c(N)nc65)O[C@@H]4CO[P@](=O)(O)O[C@H]3[C@H]2O)c(=O)[nH]1
5.46
